# System: RPMI 1788
# experiment.notes: Trypan blue exclusion test, viability (IC50) in noncancerous cells
# Format: cell-based, human
# stated.conditions: Homo sapiens; RPMI 1788, 48 h; read-out: IC50 (50% cell death)
endpoint.label: IC50

The reported value for COc1ccc2c(c1)c(C(=O)C(=O)Nc1sc3c(c1C(C)=O)CC(C)CC3)cn2Cc1ccccc1 (stereo not shown) in terms of IC50 is > 50 µM

----------
# Test system: RPMI 1788
# experiment.notes: Trypan blue exclusion test, viability (IC50) in noncancerous cells
# Type: cell-based, human
# stated.conditions: Homo sapiens; RPMI 1788, 72 h; read-out: IC50 (50% cell death)
endpoint.label: IC50

Consider COc1ccc2c(c1)c(C(=O)C(=O)Nc1sc3c(c1C(C)=O)CC(C)CC3)cn2Cc1ccccc1 (stereo not shown) . Its measured IC50 is > 50 µM
